- Tested on: BT-549 breast
- procedure-text: NCI-60 one-dose screen, 48 h
- experimental-context: 10 µM unless noted
Compounds without any hit were thinned out: in the full panel of roughly 83,000, 20% have a hit. Active and inactive are the calls of the source. How the source made its calls: active means growth percent below 10; inactive means the rest.
Outcomes you can answer with include only these: yes (active), no (inactive)

What did this assay record as the result for O=C1c2cc3c(cc2-c2c1c1ccc(Cl)cc1c(=O)n2C[C@H](O)[C@@H](O)[C@H](O)CO)OCO3 ?
yes

How did this test come out for Cn1cc(-c2csc(-c3cn(CCN)c4ccc(Br)cc34)n2)c2cccnc21 ?
no

Check the results log: what was the call for COc1cnc2c(c1)C(=O)c1c-2n(CCCNCCN2CCOCC2)c(=O)c2cc([N+](=O)[O-])ccc12 ?
no

Can you look up the reported call for COc1cc(/C=C/c2cc(/C=C/c3ccc(O)c(OC)c3)n(-c3ccc(Cl)cc3)c(=O)n2)ccc1O for me?
no

State the result this test recorded for CC[C@H](CC[C@@H](C)[C@H]1CC[C@H]2[C@@H]3/C(=C/c4cccnc4)C(=O)C4=CC(=O)CC[C@]4(C)[C@H]3CC[C@]12C)C(C)C .
no

Which outcome did this test record for the compound C=C(C)[C@@H]1CC[C@]2(C)[C@H](CC=C3[C@@H]4CC(C)(C)CC[C@]4(C(=O)OC)CC[C@]32C)[C@@]1(C)CC/C(N)=N/O ?
no

GET /call?item= O=S(=O)(NCCNc1cc(-c2cn(-c3ccccc3)nc2-c2cccc(O)c2)ccn1)c1ccccc1 returns the recorded outcome of this test.
no

Each compound tested received a call. Report the one for N#CC1=C(N)Oc2ccc3ccccc3c2C1c1ccccc1Cl (stereo not given) .
no

Test call for this compound, please: COC(=O)[C@]12CC[C@@H](C(/C=C/c3cccnc3)=N/O)[C@@H]1[C@H]1CC[C@@H]3[C@@]4(C)CC(=C/c5cccnc5)/C(=N/O)C(C)(C)[C@@H]4CC[C@@]3(C)[C@]1(C)CC2
no

For this compound, state the assay outcome: Cc1ccc(Sc2sc(-c3ccccc3)nc2[P+](c2ccccc2)(c2ccccc2)c2ccccc2)cc1
yes

Short answer needed: outcome of this test for Cn1cc(-c2csc(-c3cn(CCCN4CCCCC4)c4ccccc34)n2)c2cccnc21 ?
no

State the result this test recorded for C=COCCCCCCCCCCCCCCCCCC .
no

Query: recorded result category for CCOc1ccc(NC(=O)c2ccccc2-c2ccccc2C(=O)O)cc1 in this test
no

Answer briefly: the call reported for COC(=O)[C@]12CC[C@@H](C(=O)/C=C/c3cccnc3)[C@@H]1[C@H]1CC[C@@H]3[C@@]4(C)C/C(=C/c5cccnc5)C(=O)C(C)(C)[C@@H]4CC[C@@]3(C)[C@]1(C)CC2 in this assay.
yes

Could you kindly confirm the outcome this assay logged for CCN1CCN(C(=O)[C@]23CCC(C)(C)C[C@@H]2C2=CC[C@@H]4[C@@]5(C)C/C(=C/c6ccncc6)C(=O)C(C)(C)[C@@H]5CC[C@@]4(C)[C@]2(C)CC3)CC1 ?
yes

Test call, this compound: C[C@]12CC[C@@H]3c4ccc(O)cc4CC[C@H]3[C@@H]1C[C@H](O)[C@@H]2O
no

Fill in: this test's call for COc1ccc(C2=NN(c3nc(-c4ccc(OC)cc4)c(C#N)c(=O)n3C)C(=O)CC2)cc1 is ___
no

Record lookup: outcome of this test for COc1ccc2c(c1)c(-c1nc(-c3cn(C)c4ncccc34)cs1)cn2CCCN1CCCCC1 ?
no

Recorded test call requested for COc1ccc(-c2cc(-c3cccs3)n(N=O)c(=O)c2C#N)cc1
no

// outcome(item) with item = CCCCCCCCNc1cccc2c1C(=O)c1ccccc1C2=O
no

Please let me know the test result on file for O=C1OC(c2ccc(Cl)c(Cl)c2)=C/C1=C/c1cccc([N+](=O)[O-])c1 .
no

Could you check what this test reported for COc1ccc2c(c1)c(-c1nc(-c3c[nH]c4ncccc34)cs1)cn2CCNC(=O)OC(C)(C)C ?
no

So what was the verdict on COC(=O)[C@]12CC[C@@H](C)[C@H](C)[C@@H]1C1=CC[C@@H]3[C@@]4(C)C[C@@H](OC(C)=O)[C@H](O)[C@@](C)(COC(C)=O)[C@@H]4[C@H](O)C[C@@]3(C)[C@]1(C)CC2 in this test?
yes

State the result this test recorded for Brc1ccc2[nH]cc(-c3nc(-c4c[nH]c5ncccc45)cs3)c2c1 .
no

Name the outcome recorded for C=C(C)[C@@H]1CC[C@]2(C)[C@H](CC[C@@H]3[C@H]4[C@H]5OC[C@@]4(CCC5(C)C)CC[C@]32C)[C@@]1(C)CCCN in the assay.
no

Any idea what this test logged for CC(=O)NC1=C(C#N)C(c2ccccc2Cl)c2c(ccc3ccccc23)O1 (stereo not given) ?
no

Please state the recorded outcome for this compound: CC[C@]12C=CCN3CC[C@@]4(c5cc([C@H]6CCC(=O)N6)c(OC)cc5N(C)[C@H]4[C@@](O)(C(=O)OC)[C@@H]1OC(C)=O)[C@@H]32
no

What was the test verdict on Clc1ccc(Cn2cc(-c3nc4ccc(Br)nc4n3Cc3ccc(Cl)cc3)c3cccnc32)cc1 ?
no

Answer briefly: the call reported for CC(=O)O[C@@H]1CCN2C(=O)N(C)c3ccccc3[C@@H]2C1 in this assay.
no

Could you kindly confirm the outcome this assay logged for Fc1ccc(Nc2ccc3c(OCCCN4CCOCC4)cccc3n2)cc1F ?
no

Status in this test for CCOc1ccc(NC(=O)c2ccoc2COc2ccccc2)cc1 ?
no

Assay result, entry C/C(=N\Nc1cc(C)c2ccccc2n1)c1ccccn1 — outcome?
no

Write down the call the test reported for this compound. Item: Cc1cc(Cl)c2c(N(C)C)cccc2n1
no

Per the assay record, what outcome was assigned to CC(=O)OC(C)COc1ccc(-c2ccccc2)cc1 (stereo not given) ?
no

Field: outcome | Entry: O=C1C=Cc2ncccc2C1=O
no
